Field: pIC50. Provide a value for each of the molecules that follow.
TESTED ON: Human PDE4A (Homo sapiens (Human), UniProt P27815)
Sequence (P27815 other isoform, or with tags, fused parts or gaps): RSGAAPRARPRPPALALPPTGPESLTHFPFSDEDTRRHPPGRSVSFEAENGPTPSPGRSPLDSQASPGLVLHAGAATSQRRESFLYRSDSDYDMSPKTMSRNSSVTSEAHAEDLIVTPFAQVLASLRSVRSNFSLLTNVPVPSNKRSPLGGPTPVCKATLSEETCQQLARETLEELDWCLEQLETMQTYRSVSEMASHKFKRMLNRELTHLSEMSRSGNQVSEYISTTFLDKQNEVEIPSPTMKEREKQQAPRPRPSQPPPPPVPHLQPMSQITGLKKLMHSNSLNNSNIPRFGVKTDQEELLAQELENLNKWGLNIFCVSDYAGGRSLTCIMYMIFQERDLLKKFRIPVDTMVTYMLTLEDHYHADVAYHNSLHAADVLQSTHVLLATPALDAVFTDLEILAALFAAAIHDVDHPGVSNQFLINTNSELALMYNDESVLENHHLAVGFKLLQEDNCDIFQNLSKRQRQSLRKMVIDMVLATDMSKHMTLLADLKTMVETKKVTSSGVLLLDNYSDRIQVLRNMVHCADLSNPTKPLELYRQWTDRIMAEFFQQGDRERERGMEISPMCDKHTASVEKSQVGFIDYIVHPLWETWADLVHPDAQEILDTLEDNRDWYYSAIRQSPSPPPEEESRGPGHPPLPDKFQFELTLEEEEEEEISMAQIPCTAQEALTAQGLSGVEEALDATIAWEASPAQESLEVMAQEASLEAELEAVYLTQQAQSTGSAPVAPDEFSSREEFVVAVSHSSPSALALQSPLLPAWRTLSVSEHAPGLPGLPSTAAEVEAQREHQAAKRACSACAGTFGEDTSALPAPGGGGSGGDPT
ASSAY REMARKS: PDE4A Scintillation Proximity Assay (SPA), inhibition of enzyme activity
Assay type: biochemical
COND: human recombinant enzyme, 1 μM cAMP substrate, 30 min at 25° C., geometric mean of 2-9 determinations unless otherwise indicated, read-out: Human PDE4A FL
Numbers only, as −log10 of the molar value.

Some solved cases for reference:
> print(dat)
                                   molecule                                 tested.on  numeric.value
1  O=C(c1nc2cccnn2c1-c1ccc2c(c1)OC(F)(F)O2)N1CCC1 [Example 86]  Human PDE4A (Homo sapiens (Human), UniProt P27815)           8.23
2  O=C(NC1CC1)c1nc2cccnn2c1-c1cc(F)c(Cl)cc1F [Example 9]  Human PDE4A (Homo sapiens (Human), UniProt P27815)           8.42
3  CCCNC(=O)c1nc2cccnn2c1-c1ccc(Cl)cc1 [Example 26]  Human PDE4A (Homo sapiens (Human), UniProt P27815)           7.07
4  Cc1cc2ncnn2cc1-c1c(C(=O)NC2CC2)nc2cccnn12 [Example 89]  Human PDE4A (Homo sapiens (Human), UniProt P27815)           6.08

// next item, pIC50 requested
Task: Record lookup: for Human PDE4A (Homo sapiens (Human), UniProt P27815), what pIC50 belongs to N#Cc1ccc(-c2c(C(=O)NC3CC3)nc3cccnn23)cn1 [Example 5] ?
Result: 7.40

====

TESTED ON: Human PDE4D (Homo sapiens (Human), UniProt Q08499)
Sequence (Q08499 186-808): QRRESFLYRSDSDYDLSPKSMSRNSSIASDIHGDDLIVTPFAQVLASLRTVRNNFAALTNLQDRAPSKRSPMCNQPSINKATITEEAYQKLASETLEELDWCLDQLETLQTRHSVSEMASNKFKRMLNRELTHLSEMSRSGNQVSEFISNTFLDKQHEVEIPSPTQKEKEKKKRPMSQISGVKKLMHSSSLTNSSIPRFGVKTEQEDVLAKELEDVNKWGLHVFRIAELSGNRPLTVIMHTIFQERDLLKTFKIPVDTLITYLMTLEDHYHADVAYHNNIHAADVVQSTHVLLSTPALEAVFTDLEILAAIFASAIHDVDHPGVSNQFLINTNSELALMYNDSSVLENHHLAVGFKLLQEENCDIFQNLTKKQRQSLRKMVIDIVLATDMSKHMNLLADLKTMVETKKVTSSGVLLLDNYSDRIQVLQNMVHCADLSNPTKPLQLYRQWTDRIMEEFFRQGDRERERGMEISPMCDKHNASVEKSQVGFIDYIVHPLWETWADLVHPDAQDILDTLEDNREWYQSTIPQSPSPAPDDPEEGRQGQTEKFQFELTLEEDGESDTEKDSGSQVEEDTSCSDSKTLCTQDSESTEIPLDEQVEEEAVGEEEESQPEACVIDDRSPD
ASSAY REMARKS: PDE4D Scintillation Proximity Assay (SPA), inhibition of enzyme activity
Type: biochemical
COND: read-out: Human PDE4D FL
Counter-ions that a name gives are not always drawn.
Please respond with Criterion met when measured IC50 is strictly beneath 2000 nM, and with Criterion not met in all other cases.

Consider the following illustrative entries.
> print(dat)
                                   compound              group
1  Cn1ncc(NC(=O)c2nc3cccnn3c2-c2ccc(Cl)cc2)n1 [Example 59, trifluoroacetate salt]      Criterion met
2     O=C(NC1CC1)c1nc2cccnn2c1-c1ccc(Cl)cc1  Criterion not met
3  Cc1ccc(-c2c(C(=O)N3CCC3)nc3cccnn23)c(C)c1Cl [Example 66, formate salt]  Criterion not met
4  Cc1cc(NC(=O)c2nc3cccnn3c2-c2ccc(Cl)cc2)no1 [Example 58, trifluoroacetate salt]      Criterion met
5  CC(=O)c1ccc(F)c(-c2c(C(=O)N3CCC3)nc3cccnn23)c1 [Example 63, formate salt]      Criterion met

Kindly consider the entry below.
Task: Is IC50 strictly under 2000 nM for the entry Cn1cc(NC(=O)c2nc3cccnn3c2-c2ccc(Cl)c(F)c2)cn1 ?
Result: Criterion met

====

Exercise: for every item that follows, state its recorded IC50.
TESTED ON: Human PDE4A (Homo sapiens (Human), UniProt P27815)
ASSAY REMARKS: PDE4A Scintillation Proximity Assay (SPA), inhibition of enzyme activity
Format: biochemical
COND: human recombinant enzyme, 1 μM cAMP substrate, 30 min at 25° C., geometric mean of 2-9 determinations unless otherwise indicated, read-out: Human PDE4A FL
Answers are plain numbers, in nM.

Recorded results for 2 molecules are shown here.
> print(dat)
                              given.smiles  observed.property  numeric.value
1  Cc1ccc(-c2c(C(=O)NC3CC3)nc3cccnn23)cc1F               IC50           3.13
2   CCNC(=O)c1nc2cccnn2c1-c1cc(F)c(Cl)cc1F               IC50           4.58

Quick one: give me IC50 for each item below, same order please.
1. O=C(NC1CC1)c1nc2cccnn2c1-c1cncc(Cl)c1
2. Cc1cc(-c2c(C(=O)N3CCC3)nc3cccnn23)c(F)cc1C#N
3. O=C(c1nc2cccnn2c1-c1ccc2ccnn2c1)N1CCC1
4. Cc1cc(-c2c(C(=O)NC3CC3)nc3cccnn23)c(F)cc1C#N
5. Cc1cc(Cl)ccc1-c1c(C(=O)N2CCC2)nc2cccnn12

Result:
1. 73.7
2. 55
3. 20
4. 89.9
5. 22.7

Provide IC50 for all items below, preserving their order.
1. CCNC(=O)c1nc2cccnn2c1-c1ccc(Cl)c(F)c1
2. O=C(NC1CC1)c1nc2cccnn2c1-c1cccc(Cl)c1
3. CN(C(=O)c1nc2cccnn2c1-c1ccc(Cl)c(F)c1)C1CC1

Result:
1: 7.86; 2: 23.7; 3: 53.7

Recorded values, source patent US9598421B2.
